meta.source: ChEMBL document CHEMBL5113473

Reported MIC by item:
- System: Aspergillus fumigatus
- TEST: Antifungal activity against Aspergillus fumigatus AS 3.3913 assessed as reduction in fungal growth by CLSI protocol based broth microdilution method
- Type: functional

ITEM_SMILES	MIC
Cc1ccc(Nc2cc(-c3ccccc3Br)nc3ccccc23)cc1.Cl	64 µg/mL
Cc1ccc(Nc2cc(C3CC3)nc3ccccc23)cc1.Cl	512 µg/mL
Cc1ccc(Nc2cc(-c3cccc(F)c3)nc3ccccc23)cc1.Cl	> 512 µg/mL
Cc1ccc(Nc2cc(-c3ccccc3)nc3ccccc23)cc1.Cl	64 µg/mL
Cc1ccc(Nc2cc(C)nc3ccccc23)cc1.Cl	128 µg/mL
Cc1ccc(Nc2cc(-c3ccc(C(C)(C)C)cc3)nc3ccccc23)cc1.Cl	2 µg/mL
Cc1ccc(Nc2ccnc3ccccc23)cc1.Cl	128 µg/mL
Cc1ccc(Nc2cc(-c3ccccc3Cl)nc3ccccc23)cc1.Cl	512 µg/mL
Cc1ccc(Nc2cc(-c3ccccc3C)nc3ccccc23)cc1.Cl	32 µg/mL
CCN(c1ccc(C)cc1)c1cc(-c2cccc(C)c2)nc2ccccc12	512 µg/mL
Cc1ccc(Nc2cc(-c3ccc(C(F)(F)F)cc3)nc3ccccc23)cc1.Cl	> 512 µg/mL
Cc1ccc(Nc2cc(-c3cccc(C)c3)nc3ccccc23)cc1.Cl	128 µg/mL
Cc1ccc(Nc2cc(-c3cccc(Cl)c3)nc3ccccc23)cc1.Cl	> 512 µg/mL
COc1cccc(-c2cc(Nc3ccc(C)cc3)c3ccccc3n2)c1.Cl	32 µg/mL
Cc1ccc(Nc2cc(C3CCC3)nc3ccccc23)cc1.Cl	64 µg/mL
Cc1ccc(Nc2cc(-c3ccc(F)cc3)nc3ccccc23)cc1.Cl	> 512 µg/mL
Cc1ccc(Nc2cc(-c3ccco3)nc3ccccc23)cc1.Cl	128 µg/mL
CCN(c1ccc(C)cc1)c1cc(-c2ccccc2OC)nc2ccccc12	256 µg/mL
Cc1ccc(Nc2cc(-c3cccnc3)nc3ccccc23)cc1.Cl	> 512 µg/mL
COc1ccc(-c2cc(Nc3ccc(C)cc3)c3ccccc3n2)cc1.Cl	8 µg/mL
Cc1ccc(Nc2cc(C3CCCC3)nc3ccccc23)cc1.Cl	16 µg/mL
Cc1ccc(Nc2nc(-c3ccccc3)nc3ccccc23)cc1.Cl	> 512 µg/mL
Cc1ccc(Nc2cc(-c3ccc(Br)cc3)nc3ccccc23)cc1.Cl	> 512 µg/mL
Cc1ccc(Nc2cc(-c3ccc(Cl)cc3)nc3ccccc23)cc1.Cl	> 512 µg/mL
COc1ccccc1-c1cc(Nc2ccc(C)cc2)c2ccccc2n1.Cl	8 µg/mL

====

- TEST: Selectivity index, ration of CC50 for cytotoxicity against human HUVEC cells to MIC for antifungal activity against Candida albicans ATCC 10231
- Format: toxicity, cell-based
- PARTICULARS: read-out: Selectivity Index
MEASURED_PROPERTY: selectivity ratio

ITEM_SMILES	EXPERIMENTAL_RESULT
Cc1ccc(Nc2cc(-c3ccc(C)cc3)nc3ccccc23)cc1.Cl	1.63
C[C@@H]1[C@H](O)[C@@H](C)/C=C/C=C/C=C/C=C/C=C/C=C/C=C/[C@H](O[C@@H]2O[C@H](C)[C@@H](O)[C@H](N)[C@@H]2O)C[C@@H]2O[C@](O)(C[C@@H](O)C[C@@H](O)[C@H](O)CC[C@@H](O)C[C@@H](O)CC(=O)O[C@H]1C)C[C@H](O)[C@H]2C(=O)O	4.55
